- test_description: self-splicing fitness, log relative to wild type (ln ratio); higher = more splicing; Tetrahymena group I intron in knt gene, E. coli kanamycin selection, DiMSum; sequences stand for … in CUCUCU…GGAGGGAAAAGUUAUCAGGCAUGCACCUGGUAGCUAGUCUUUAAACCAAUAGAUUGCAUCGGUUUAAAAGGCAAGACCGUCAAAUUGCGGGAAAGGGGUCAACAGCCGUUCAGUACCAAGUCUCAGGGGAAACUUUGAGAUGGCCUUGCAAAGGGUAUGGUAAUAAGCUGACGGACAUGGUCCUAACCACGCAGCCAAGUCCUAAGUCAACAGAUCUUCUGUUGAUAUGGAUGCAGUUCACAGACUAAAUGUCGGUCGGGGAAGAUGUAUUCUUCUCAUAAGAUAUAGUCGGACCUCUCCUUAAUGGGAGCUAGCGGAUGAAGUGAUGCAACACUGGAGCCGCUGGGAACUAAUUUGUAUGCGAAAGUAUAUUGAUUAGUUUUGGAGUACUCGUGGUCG;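 also: selection with 25 µg/mL kanamycin versus none on LB agar overnight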
- experimental_setup: 37 °C
Please provide measured self-splicing fitness (ln) for the entries that follow.
Answers are plain numbers.

Illustrative cases are given below, each with its answer.
- sequence_record: "CGUAAGCAAUAUUACGCUCA"
  self-splicing fitness (ln): -0.106
- sequence_record: "CAGGAGCAAUAUUACGAUAU"
  self-splicing fitness (ln): -2.37
- sequence_record: "UCUCAGCAAUAUUACGGCAG"
  self-splicing fitness (ln): -0.98
- sequence_record: "CGCCAGCAAUAUUACGACAC"
  self-splicing fitness (ln): -1.65

For each of the sequences below, note its self-splicing fitness (ln).
1. ACGUAGCAAUAUUACGCCAG
2. ACUAAGCAAUAUUACGAAAG
3. CUCCAGCAAUAUUACGUUAC

Result:
[-2.19, -1.55, -2.42]

For each of the sequences below, note its self-splicing fitness (ln).
1. GGAAAGCAAUAUUACGAUAG
2. UUGCAGCAAUAUUACGGCCA
3. ACCAAGCAAUAUUACGGUAG

Result:
-1.16
0.347
-2.5

For each of the sequences below, note its self-splicing fitness (ln).
1. AAUCAGCAAUAUUACGAAGA
2. UACUAGCAAUAUUACGUAGC
3. CAACAGCAAUAUUACGUUCG
4. CACUAGCAAUAUUACGCGCG
5. AUGUAGCAAUAUUACGAAGA

Result:
1. 0.0829
2. -2.19
3. -0.171
4. -0.054
5. -0.739

For each of the sequences below, note its self-splicing fitness (ln).
1. UGAUAGCAAUAUUACGCAUC
2. CUUGAGCAAUAUUACGGGUC
3. CAGAAGCAAUAUUACGUGGU
4. AGGGAGCAAUAUUACGGAAA

Result:
[-1.53, -2.97, -1.86, -2.34]

###

- test_description: self-splicing fitness, log relative to wild type (ln ratio); higher = more splicing; Tetrahymena group I intron in knt gene, E. coli kanamycin selection, DiMSum; sequences stand for … in CUCUCU…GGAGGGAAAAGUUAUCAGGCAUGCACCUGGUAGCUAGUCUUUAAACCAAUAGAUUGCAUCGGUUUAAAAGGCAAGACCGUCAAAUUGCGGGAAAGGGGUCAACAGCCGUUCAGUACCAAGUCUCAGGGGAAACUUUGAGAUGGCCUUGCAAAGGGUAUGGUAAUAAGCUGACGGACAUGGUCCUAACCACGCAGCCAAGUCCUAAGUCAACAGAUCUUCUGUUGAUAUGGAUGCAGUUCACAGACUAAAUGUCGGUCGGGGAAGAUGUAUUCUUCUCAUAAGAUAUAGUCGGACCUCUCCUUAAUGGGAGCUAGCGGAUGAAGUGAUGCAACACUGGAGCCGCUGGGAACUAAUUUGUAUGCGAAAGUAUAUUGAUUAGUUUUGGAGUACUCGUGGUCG
- experimental_setup: 37 °C
observable: self-splicing fitness (ln)
One number for each entry.

Illustrative cases are given below, each with its answer.
- sequence_record: "UAAUAGCAAUAUUACGCAAU"
  self-splicing fitness (ln): -2.4
- sequence_record: "CUGUAGCAAUAUUACGAAGU"
  self-splicing fitness (ln): -1.82
- sequence_record: "UCAAAGCAAUAUUACGACGU"
  self-splicing fitness (ln): 0.289
- sequence_record: "ACGCAGCAAUAUUACGGUCA"
  self-splicing fitness (ln): -0.339
- sequence_record: "UUACAGCAAUAUUACGCCUC"
  self-splicing fitness (ln): -2.03

For each of the sequences below, note its self-splicing fitness (ln).
1. AAGAAGCAAUAUUACGCUCA
2. GAAAAGCAAUAUUACGGUAG
3. UAUUAGCAAUAUUACGUCUG

Result:
1: -0.132; 2: -1.53; 3: -0.652
